The entries below come with measured TGI values attached.
Tested on: KM20L2 colon
assay method text: NCI tumour cell line growth inhibition, 48 h

These solved cases illustrate the format of a correct answer.
# compound, study system, TGI
measured = [
    ("COc1ccc2nc3cc(Cl)ccc3c(Sc3ccccc3[N+](=O)[O-])c2c1", "KM20L2 colon", "> 100 µM"),
    ("CCOC(=O)C(Sc1ccccc1)c1c(OC)cc(=O)oc1/C=[N+](/[O-])c1ccc(N(C)C)cc1 (stereo unspecified)", "KM20L2 colon", "89.2 µM"),
    ("Cc1cc(=O)[nH]c(NNC(C#N)c2cccc(O)c2)n1 (stereo unspecified)", "KM20L2 colon", "> 100 µM"),
    ("O=[S@@]1Nc2ccc(Br)cc2S1", "KM20L2 colon", "> 100 µM"),
    ("C=C1C(=O)[C@@]23CC[C@H]4[C@@](C)(CCC[C@@]4(C)C(=O)OC)[C@@H]2CC[C@]1(O)C3", "KM20L2 colon", "3.83 µM"),
]

Ask: // fetch TGI given entry "COc1ccc(-c2cc(=O)c3ccc(O)cc3o2)c(OC)c1OC"
Reply: > 100 µM

Ask: Give the measured TGI for CC1(C)COC(c2ccc(C(F)(F)F)cc2C(O)c2ccc3ccccc3c2)=N1 (stereo unspecified)
Reply: > 100 µM

Ask: Read off the recorded TGI for "COc1ccc(/C=C\c2cc(OC)c3c(c2)OCO3)c(O)c1O"
Reply: 61.5 µM

Ask: Tell me its TGI given CCNC1C2(CCCCC2)NC(=O)C12CCCCC2 (stereo unspecified) as the entry.
Reply: > 100 µM

Ask: Hello, please tell me recorded TGI for this one: "COc1ccc2c(c1)C1(C=N2)CCN(C(C)=O)CC1"
Reply: > 100 µM

Ask: Give TGI for "O=C(O)CCSC(=O)Nc1cccc(F)c1"
Reply: > 100 µM

Reference source for all entries: PubChem BioAssay (NCI)
